Consider the following Ki values measured on Proto-oncogene tyrosine-protein kinase Src (Homo sapiens).
Sequence (P12931 2-536 limits assumed): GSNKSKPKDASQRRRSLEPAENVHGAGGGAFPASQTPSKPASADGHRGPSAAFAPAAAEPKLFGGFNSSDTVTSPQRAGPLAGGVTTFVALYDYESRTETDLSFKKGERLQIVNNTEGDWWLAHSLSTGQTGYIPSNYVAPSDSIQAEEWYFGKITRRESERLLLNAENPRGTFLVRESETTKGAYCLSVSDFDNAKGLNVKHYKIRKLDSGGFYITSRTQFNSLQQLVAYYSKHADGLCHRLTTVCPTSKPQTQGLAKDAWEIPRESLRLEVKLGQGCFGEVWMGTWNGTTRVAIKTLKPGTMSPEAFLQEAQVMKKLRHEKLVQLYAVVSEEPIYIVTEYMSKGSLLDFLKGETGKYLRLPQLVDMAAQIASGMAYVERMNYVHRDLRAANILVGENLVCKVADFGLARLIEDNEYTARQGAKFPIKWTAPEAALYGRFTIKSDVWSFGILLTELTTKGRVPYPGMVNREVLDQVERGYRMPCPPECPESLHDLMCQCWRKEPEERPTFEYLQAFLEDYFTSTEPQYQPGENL

compound: ClC(Cn1ncc2c(NCc3ccccc3)nc(SCCN3CCOCC3)nc21)c1ccccc1 (centres undefined)
Ki (µM): 2.9

compound: Clc1ccc(C(Cl)Cn2ncc3c(NCc4ccncc4)ncnc32)cc1 (centres undefined)
Ki (µM): 3.9

compound: OCCNc1nc(NCCc2ccccc2)c2cnn(/C=C\c3ccccc3)c2n1
Ki (µM): 2.4

compound: Clc1cccc(Nc2nc(N3CCOCC3)nc3c2cnn3CC(Cl)c2ccccc2)c1 (centres undefined)
Ki (µM): 7.6

###

Molecular target: Signal transducer and activator of transcription 5A (Homo sapiens) (UniProt P42229)
Sequence (P42229 whole entry): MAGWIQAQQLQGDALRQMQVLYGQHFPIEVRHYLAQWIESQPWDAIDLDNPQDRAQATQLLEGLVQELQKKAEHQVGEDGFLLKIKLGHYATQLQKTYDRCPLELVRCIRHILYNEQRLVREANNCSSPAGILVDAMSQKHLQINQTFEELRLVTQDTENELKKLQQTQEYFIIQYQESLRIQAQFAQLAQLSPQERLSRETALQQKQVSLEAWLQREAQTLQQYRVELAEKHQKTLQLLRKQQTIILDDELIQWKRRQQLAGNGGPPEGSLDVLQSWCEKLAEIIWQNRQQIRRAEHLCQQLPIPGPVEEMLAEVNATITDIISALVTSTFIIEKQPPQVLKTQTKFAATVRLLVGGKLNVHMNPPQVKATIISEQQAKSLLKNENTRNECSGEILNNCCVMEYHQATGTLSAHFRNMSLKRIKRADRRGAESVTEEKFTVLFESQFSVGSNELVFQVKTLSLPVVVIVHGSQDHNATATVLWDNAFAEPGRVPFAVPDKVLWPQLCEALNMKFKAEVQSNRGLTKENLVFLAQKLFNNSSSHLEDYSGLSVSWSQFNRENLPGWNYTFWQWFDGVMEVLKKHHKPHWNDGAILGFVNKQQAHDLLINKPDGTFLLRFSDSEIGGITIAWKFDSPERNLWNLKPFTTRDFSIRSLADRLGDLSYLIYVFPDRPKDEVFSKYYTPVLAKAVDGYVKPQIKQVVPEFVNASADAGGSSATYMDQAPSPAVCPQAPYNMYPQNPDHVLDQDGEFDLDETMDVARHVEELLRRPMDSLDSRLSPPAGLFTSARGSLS
Assay: Inhibition of STAT5 phosphorylation in human MEG-01 cells under hypoxic condition after 3 hrs by Western blotting
Type: cell-based
Calls of active or inactive are those of the source. The calls are words filed in the database; no cut-off is given here.

compound: Clc1cccc(Nc2nc(SCCN3CCOCC3)nc3c2cnn3CC(Cl)c2ccccc2)c1 (stereo unspecified)
system-under-test: Signal transducer and activator of transcription 5A (Homo sapiens) (UniProt P42229)
inhibition: Active
--
compound: Fc1ccc(CNc2ncnc3c2cnn3CC(Cl)c2ccc(Cl)cc2)cc1 (stereo unspecified)
system-under-test: Signal transducer and activator of transcription 5A (Homo sapiens) (UniProt P42229)
inhibition: Active
--
compound: Clc1ccc(C(Cl)Cn2ncc3c(NCc4ccncc4)ncnc32)cc1 (stereo unspecified)
system-under-test: Signal transducer and activator of transcription 5A (Homo sapiens) (UniProt P42229)
inhibition: Active
--
compound: ClC(Cn1ncc2c(Nc3ccccc3)nc(SCCN3CCOCC3)nc21)c1ccccc1 (stereo unspecified)
system-under-test: Signal transducer and activator of transcription 5A (Homo sapiens) (UniProt P42229)
inhibition: Active
--
compound: ClC(Cn1ncc2c(NCc3ccccc3)nc(SCCN3CCOCC3)nc21)c1ccccc1 (stereo unspecified)
system-under-test: Signal transducer and activator of transcription 5A (Homo sapiens) (UniProt P42229)
inhibition: Active
--
compound: Clc1cccc(Nc2nc(N3CCOCC3)nc3c2cnn3CC(Cl)c2ccccc2)c1 (stereo unspecified)
system-under-test: Signal transducer and activator of transcription 5A (Homo sapiens) (UniProt P42229)
inhibition: Active
